Origin of measurements: the RNAGym collection of RNA variant scans (doi:10.1038/nmeth.2970)

B1: NELF-E aptamer (parent)
chain: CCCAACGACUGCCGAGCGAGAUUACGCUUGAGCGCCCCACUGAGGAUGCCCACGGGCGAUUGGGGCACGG

variants of: B1; assay: HiTS-RAP; details: with NELF-E (Drosophila)
quantity kind: log10(Kd) (log10 of the value in nM)
// do not treat as linear: log10 of Kd, unit nM

// solved cases for log10(Kd) follow
A8U G16A	0.83
G54A G55A	1.42
C17U U41G	0.75

# input for lookup
Return reported log10(Kd); argument: C9G C53U 0.67
